B1: library; numbered along this chain (parent)
chain: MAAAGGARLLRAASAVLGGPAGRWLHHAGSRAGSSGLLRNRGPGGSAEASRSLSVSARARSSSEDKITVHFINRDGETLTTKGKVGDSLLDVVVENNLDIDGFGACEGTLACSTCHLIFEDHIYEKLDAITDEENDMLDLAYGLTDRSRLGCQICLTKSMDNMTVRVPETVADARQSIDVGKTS

variants of: B1; assay: scaled log2 fold change in cell abundance, elesclomol vs control (0 = silent mean, 1 = nonsense mean) (scaled log2 ratio); higher = higher viability under elesclomol (loss of FDX1 cuproptosis function); details: with ABC1 FDX1 KO; elesclomol 5 nM; glucose 10 mM; 14 days;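 also: variant abundance is its share of total variant reads in each endpoint sample, from next-generation sequencing of the integrated ORF PCR-amplified out of genomic DNA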
Please mark Yes if the recorded scaled log2 fold change is equal to or greater than 0.06, and No if it falls below.

Before answering, review these 5 worked examples.
A3D Yes
V55T Yes
C155T No
R23S No
R39G Yes

Determine whether measured scaled log2 fold change meets or exceeds 0.06 for "E48D"
Yes

Record "N162M" ; criterion: scaled log2 fold change no lower than 0.06. Met?
Yes

Please tell me: is the variant "H116I" at or over 0.06 in terms of scaled log2 fold change?
No
